# Protocol description: clinical
# Measurement setup: female, human, in vivo, po, 10 mg
Measured property: AUC

{"Compound": "COCCCOc1ccnc(C[S+]([O-])c2nc3ccccc3[nH]2)c1C (stereo not shown)", "Result": "424 ng·h/mL"}

###

# Protocol description: clinical
# Measurement setup: male, human, in vivo, po, 10 mg
# Method: Analysis of biochemical parameters was performed on all subjects participating in the clinical trial and the methods are presented in Supplementary Information S1. […] Pharmacokinetic parameters calculated by NCA were estimated based on plasma concentration values over time after orally administering a 10 mg rabeprazole enteric-coated tablet. […] The significant differences between genders were compared using a two-tailed t test, with significance determined at a p value of 0.05. […]

{"Molecule": "COCCCOc1ccnc(C[S+]([O-])c2nc3ccccc3[nH]2)c1C (stereo not shown) [rabeprazole, Rabeprazole]", "AUC": "439 ng·h/mL"}

###

# Protocol description: clinical
# Measurement setup: both, human, in vivo, po, 10 mg

{"Compound": "COCCCOc1ccnc(C[S+]([O-])c2nc3ccccc3[nH]2)c1C (stereo not shown) [rabeprazole, Rabeprazole]", "Unit abbrev": "min", "half-life": 93}

###

# Protocol description: Population pharmacokinetic model (three sequential absorption with Tlag, two-compartment; Phoenix NLME)
# Type: in vivo, human
# Measurement setup: population PK model estimate as quoted in text

{"Compound": "COCCCOc1ccnc(C[S+]([O-])c2nc3ccccc3[nH]2)c1C (stereo not shown)", "Unit abbrev": "L", "Vp/F estimate": 11.5}

###

# Protocol description: clinical
# Measurement setup: female, human, in vivo, po, 10 mg

{"Compound": "COCCCOc1ccnc(C[S+]([O-])c2nc3ccccc3[nH]2)c1C (stereo not shown)", "Unit abbrev": "ng·h/mL", "AUC(0-inf)": 453}

###

# Protocol description: Population pharmacokinetic model (three sequential absorption with Tlag, two-compartment; Phoenix NLME)
# Assay type: in vivo, human
# Measurement setup: both sexes, human, plasma, oral, 10 mg, Bootstrap (n = 1000) Median; read-out: tvCLc/F (typical value, central compartment clearance) (converted)
Measured property: CL/F

{"Molecule": "COCCCOc1ccnc(C[S+]([O-])c2nc3ccccc3[nH]2)c1C (stereo not shown)", "Result": "424 mL/min"}

###

# Protocol description: clinical
# Measurement setup: male, human, in vivo, po, 10 mg
Measured property: Tmax

{"Compound": "COCCCOc1ccnc(C[S+]([O-])c2nc3ccccc3[nH]2)c1C (stereo not shown)", "Result": "3.38 h"}

###

# Protocol description: clinical
# Measurement setup: male, human, in vivo, po, 10 mg

{"Compound": "COCCCOc1ccnc(C[S+]([O-])c2nc3ccccc3[nH]2)c1C (stereo not shown) [rabeprazole, Rabeprazole]", "half-life": "96 min"}

###

# Protocol description: clinical
# Measurement setup: female, human, in vivo, po
Measured property: Tmax (h)

{"Compound": "COCCCOc1ccnc(C[S+]([O-])c2nc3ccccc3[nH]2)c1C (stereo not shown)", "Measured property": "Tmax", "Unit abbrev": "h", "Quantitative readout": 4.1}

###

# Protocol description: clinical
# Measurement setup: female, human, in vivo, po, 10 mg
# Protocol: Analysis of biochemical parameters was performed on all subjects participating in the clinical trial and the methods are presented in Supplementary Information S1. […] Pharmacokinetic parameters calculated by NCA were estimated based on plasma concentration values over time after orally administering a 10 mg rabeprazole enteric-coated tablet. […] The significant differences between genders were compared using a two-tailed t test, with significance determined at a p value of 0.05. […]

{"Molecule": "COCCCOc1ccnc(C[S+]([O-])c2nc3ccccc3[nH]2)c1C (stereo not shown)", "Cmax / ng/mL": 260}
